- TARGET_OR_SYSTEM: Tyrosine-protein kinase TXK (Homo sapiens, UniProt P42681)
- Sequence (P42681 whole entry): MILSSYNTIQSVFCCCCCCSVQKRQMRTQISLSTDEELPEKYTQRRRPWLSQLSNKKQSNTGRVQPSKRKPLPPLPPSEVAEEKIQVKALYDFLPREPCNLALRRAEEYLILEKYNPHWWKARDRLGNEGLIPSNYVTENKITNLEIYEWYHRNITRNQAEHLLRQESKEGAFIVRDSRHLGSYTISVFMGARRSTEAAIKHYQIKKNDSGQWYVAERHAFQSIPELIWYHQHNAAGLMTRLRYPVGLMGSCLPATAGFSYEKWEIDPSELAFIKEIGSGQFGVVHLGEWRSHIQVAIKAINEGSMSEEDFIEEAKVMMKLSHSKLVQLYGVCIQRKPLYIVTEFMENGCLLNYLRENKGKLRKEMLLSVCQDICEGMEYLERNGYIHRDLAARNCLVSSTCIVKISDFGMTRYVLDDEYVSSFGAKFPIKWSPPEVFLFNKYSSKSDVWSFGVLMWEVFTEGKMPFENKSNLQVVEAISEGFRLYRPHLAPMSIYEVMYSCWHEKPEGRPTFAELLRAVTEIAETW
pIC50: −log10 of the molar value.
PROPERTY_MEASURED: pIC50

Nc1nccn2c([C@H]3CN(C4CCOCC4)CCO3)nc(-c3ccc(C(=O)Nc4cc(C(F)(F)F)ccn4)cc3F)c12
6.55

[1] CC(C)C(=O)N1CCC[C@@H](c2nc(-c3ccc(C(=O)Nc4cc(C(F)(F)F)ccn4)cc3F)c3c(N)nccn23)C1
[2] COCC(=O)N1CCO[C@@H](c2nc(-c3ccc(C(=O)Nc4cc(C(F)(F)F)ccn4)cc3F)c3c(N)nccn23)C1
Request: Could you kindly indicate whether 1 or 2 has the higher pIC50 value? // respond with label for picked entry
Response: 1
(1: 6.88, 2: 6.59)
